# assay_details: Pharmacokinetic (PK) study in mice
# Format: in vivo, mice (C57BL/6)
# condition_details: male C57BL/6 mice; i.v. 1 mg/kg and oral gavage 3 mg/kg groups, route not given
# Protocol: Clear solutions obtained by dissolving the test compounds were administered to male mice (C57BL/6) or rats (SD) by tail vein injection and oral gavage (overnight fasting, 7-8 weeks old). […] The plasma concentration was measured by LC-MS/MS method, and the relevant pharmacokinetic parameters were calculated by WinNonlin™ Version 6.3 pharmacokinetic software using non-compartmental model linear logarithmic trapezoid method.
experimental_endpoint: Cmax (µM)
Report only the number, with the unit µM understood.

Give its Cmax value. Item: CN(c1ncnc2[nH]ccc12)[C@@H]1CCc2cc(C#N)nn2C1 [Compound 1-13]
6

* * *

# target_system: TYK2(h) (Homo sapiens (Human))
# Sequence (P29597 whole entry): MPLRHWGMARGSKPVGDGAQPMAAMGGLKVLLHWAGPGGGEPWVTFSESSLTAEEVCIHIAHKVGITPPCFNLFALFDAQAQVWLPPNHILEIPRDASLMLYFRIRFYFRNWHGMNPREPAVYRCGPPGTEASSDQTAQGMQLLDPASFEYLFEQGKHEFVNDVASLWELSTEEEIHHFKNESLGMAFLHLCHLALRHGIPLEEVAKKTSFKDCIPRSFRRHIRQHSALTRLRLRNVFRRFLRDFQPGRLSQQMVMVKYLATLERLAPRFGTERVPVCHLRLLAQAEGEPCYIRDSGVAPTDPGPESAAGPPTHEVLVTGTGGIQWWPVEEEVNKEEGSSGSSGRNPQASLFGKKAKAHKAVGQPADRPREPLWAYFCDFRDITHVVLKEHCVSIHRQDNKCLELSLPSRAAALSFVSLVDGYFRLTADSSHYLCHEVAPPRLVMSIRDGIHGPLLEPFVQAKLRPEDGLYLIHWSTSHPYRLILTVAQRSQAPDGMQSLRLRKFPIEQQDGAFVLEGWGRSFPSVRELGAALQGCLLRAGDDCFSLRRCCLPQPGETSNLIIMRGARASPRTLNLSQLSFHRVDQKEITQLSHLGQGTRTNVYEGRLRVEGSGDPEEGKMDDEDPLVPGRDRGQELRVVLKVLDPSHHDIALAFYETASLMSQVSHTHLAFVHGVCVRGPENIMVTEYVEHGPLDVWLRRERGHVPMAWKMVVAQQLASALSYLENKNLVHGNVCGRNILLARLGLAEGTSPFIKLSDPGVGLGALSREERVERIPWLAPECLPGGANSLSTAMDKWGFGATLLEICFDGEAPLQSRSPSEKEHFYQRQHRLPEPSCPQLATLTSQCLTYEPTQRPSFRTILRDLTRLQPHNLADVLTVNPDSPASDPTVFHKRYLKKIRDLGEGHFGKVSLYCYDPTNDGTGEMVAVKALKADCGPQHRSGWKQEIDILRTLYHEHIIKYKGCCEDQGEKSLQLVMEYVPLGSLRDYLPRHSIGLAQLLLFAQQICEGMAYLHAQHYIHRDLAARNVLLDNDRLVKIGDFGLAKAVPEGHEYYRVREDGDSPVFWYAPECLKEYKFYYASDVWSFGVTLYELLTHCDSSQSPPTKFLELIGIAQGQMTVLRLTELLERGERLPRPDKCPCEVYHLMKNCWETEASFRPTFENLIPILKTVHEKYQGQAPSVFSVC
# assay_details: In vitro activity assay of TYK2 kinase (radiometric [γ-33P]-ATP)
# condition_details: recombinant human TYK2
experimental_endpoint: pIC50
When answering, recall that pIC50 equals minus log10 of the concentration in mol/L, and write that number alone.

# query: pIC50 of entry CN(c1ncnc2[nH]ccc12)[C@@H]1CCc2cc(C#N)nn2C1
7.82

* * *

# target_system: JAK1(h) (Homo sapiens (Human), UniProt P23458)
# Sequence (P23458 whole entry): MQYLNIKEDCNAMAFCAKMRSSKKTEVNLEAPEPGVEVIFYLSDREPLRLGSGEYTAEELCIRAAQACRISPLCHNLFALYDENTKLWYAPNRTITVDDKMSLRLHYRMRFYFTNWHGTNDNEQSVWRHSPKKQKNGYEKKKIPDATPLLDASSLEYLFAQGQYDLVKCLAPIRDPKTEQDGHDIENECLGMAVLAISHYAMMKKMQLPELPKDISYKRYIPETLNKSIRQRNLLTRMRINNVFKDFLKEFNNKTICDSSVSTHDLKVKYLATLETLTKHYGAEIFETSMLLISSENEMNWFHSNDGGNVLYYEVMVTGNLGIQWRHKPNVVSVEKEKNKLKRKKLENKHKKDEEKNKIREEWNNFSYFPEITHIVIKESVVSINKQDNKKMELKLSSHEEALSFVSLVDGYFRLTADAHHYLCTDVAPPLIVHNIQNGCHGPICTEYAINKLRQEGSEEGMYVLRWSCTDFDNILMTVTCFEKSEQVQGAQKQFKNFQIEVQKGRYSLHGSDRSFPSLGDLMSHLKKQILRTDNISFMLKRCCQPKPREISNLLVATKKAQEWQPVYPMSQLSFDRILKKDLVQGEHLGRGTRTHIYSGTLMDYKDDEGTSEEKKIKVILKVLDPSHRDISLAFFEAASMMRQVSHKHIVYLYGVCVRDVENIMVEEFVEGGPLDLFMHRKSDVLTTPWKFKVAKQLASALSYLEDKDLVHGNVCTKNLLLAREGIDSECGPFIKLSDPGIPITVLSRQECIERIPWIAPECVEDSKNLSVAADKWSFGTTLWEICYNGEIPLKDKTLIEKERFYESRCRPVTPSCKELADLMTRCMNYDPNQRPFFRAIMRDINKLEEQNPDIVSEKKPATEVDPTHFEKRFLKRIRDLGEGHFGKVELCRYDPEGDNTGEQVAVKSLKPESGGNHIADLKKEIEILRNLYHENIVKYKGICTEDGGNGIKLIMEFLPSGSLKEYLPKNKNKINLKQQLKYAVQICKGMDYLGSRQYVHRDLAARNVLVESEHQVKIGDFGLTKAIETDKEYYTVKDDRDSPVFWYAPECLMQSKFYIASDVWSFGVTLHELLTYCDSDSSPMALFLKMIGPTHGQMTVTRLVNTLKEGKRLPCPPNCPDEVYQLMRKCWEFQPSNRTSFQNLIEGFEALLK
# assay_details: In vitro activity assay of JAK1 kinase (radiometric [γ-33P]-ATP)
# condition_details: recombinant human JAK1
experimental_endpoint: pIC50
Quick note: pIC50 values are minus log10 of concentrations in mol/L.

Name the recorded pIC50 for CN(c1ncnc2[nH]ccc12)[C@@H]1CCc2cc(C#N)nn2C1 .
9.00
